Exercise: state measured sfGFP reporter fluorescence for each of the variants provided.
B1: library; numbered along this chain (parent)
chain: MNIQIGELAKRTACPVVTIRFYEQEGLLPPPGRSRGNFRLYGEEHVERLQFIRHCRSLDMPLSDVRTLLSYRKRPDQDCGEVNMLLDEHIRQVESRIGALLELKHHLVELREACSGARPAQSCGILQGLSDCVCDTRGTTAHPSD

- Variants of: B1
- assay-explanation: sfGFP reporter fluorescence (15 h) (µM FITC); higher = stronger transcriptional activation
- test-conditions: library round: Round 1; ligand: 30 µM Zn
The answer should be written as a number, with no unit following it.

-- ask Using the record for K104V V108K , report its sfGFP reporter fluorescence.
-- reply 1.44

-- ask Give its sfGFP reporter fluorescence value. Item: R91A K104V
-- reply 0.748

-- ask Could you share which sfGFP reporter fluorescence value was measured for P61N D64K D135A ?
-- reply 1.33

-- ask What value of sfGFP reporter fluorescence has been recorded for this entry: P61N V108M
-- reply 0.698

-- ask What value of sfGFP reporter fluorescence has been reported for the following variant? N83T P143R
-- reply 0.145

-- ask Value lookup for sfGFP reporter fluorescence; key = N83T R111F
-- reply 0.085

-- ask Looking for the measured sfGFP reporter fluorescence of M60L P61N D64K K104T , can you help?
-- reply 1.18

-- ask # lookup: sfGFP reporter fluorescence of K104R C134I
-- reply 1.14

-- ask Bench note: what sfGFP reporter fluorescence did D64S E109H show?
-- reply 1

-- ask Item under review: L126I D131C . Reported sfGFP reporter fluorescence?
-- reply 0.0699

-- ask For P61D D64K L107C , what is its reported sfGFP reporter fluorescence?
-- reply 2.2

-- ask Which sfGFP reporter fluorescence reading was recorded for the variant C79F G128M ?
-- reply 0.0597

-- ask What sfGFP reporter fluorescence value was documented for this variant, N83T L85A ?
-- reply 0.0602

-- ask For R111I G128I , what is its reported sfGFP reporter fluorescence?
-- reply 0.695

-- ask Please report the recorded sfGFP reporter fluorescence for N83T R96A .
-- reply 0.0938

-- ask I'd like to know its sfGFP reporter fluorescence. The variant in question is D64A D135R
-- reply 1.55

-- ask Entry P61N L68F I90T : reported sfGFP reporter fluorescence = ?
-- reply 0.435

-- ask For the variant shown here, L107N G128M , give the reported sfGFP reporter fluorescence.
-- reply 0.917

-- ask Which sfGFP reporter fluorescence is listed for L107C C134I ?
-- reply 2.12

-- ask For the variant N83S I90L R111L , what sfGFP reporter fluorescence is on record?
-- reply 0.205

-- ask Endpoint output: sfGFP reporter fluorescence of R96Q . Value?
-- reply 0.455

-- ask Would you mind telling me what sfGFP reporter fluorescence value was observed for G128H P143A ?
-- reply 0.121

-- ask sfGFP reporter fluorescence lookup needed for R96A K104V , thanks.
-- reply 0.118

-- ask Field request: sfGFP reporter fluorescence | item: K104V R111L
-- reply 0.0976

-- ask Request the reported sfGFP reporter fluorescence associated with E43M G128I
-- reply 1.23

-- ask // query sfGFP reporter fluorescence value for entry L107I C114R
-- reply 0.0514

-- ask Entry under review: E43C K104V . Reported sfGFP reporter fluorescence?
-- reply 0.162

-- ask Entry N83T E94R : reported sfGFP reporter fluorescence = ?
-- reply 0.128

-- ask Consider the variant shown here: D131C P143R What is its recorded sfGFP reporter fluorescence?
-- reply 0.196

-- ask Which sfGFP reporter fluorescence value is on record for D131A C134V ?
-- reply 1.24

-- ask Return reported sfGFP reporter fluorescence; argument: D64K V108E
-- reply 1.42

-- ask Would you mind telling me what sfGFP reporter fluorescence value was observed for N83T I97G ?
-- reply 0.0965

-- ask Requested field: sfGFP reporter fluorescence. Item: D64T E88A C134E
-- reply 1.65

-- ask Looking for the measured sfGFP reporter fluorescence of N83T I97H , can you help?
-- reply 0.0778

-- ask Using the record for G128I D135P , report its sfGFP reporter fluorescence.
-- reply 0.904

-- ask Suppose we examine the variant D131H D135A ; what sfGFP reporter fluorescence value has been reported?
-- reply 0.402

-- ask Which measured sfGFP reporter fluorescence value corresponds to N83T K104R D135K ?
-- reply 0.149

-- ask Look at this variant and give its reported sfGFP reporter fluorescence. M60L P61N D64K K104V L107E G128I
-- reply 0.0596

-- ask Look up sfGFP reporter fluorescence: D64K N83T D131S
-- reply 1.03

-- ask If you can, please state the reported sfGFP reporter fluorescence value of D131A D135P P143W .
-- reply 0.497

-- ask Quick one: sfGFP reporter fluorescence of P61L L62I ?
-- reply 0.0771

-- ask Returns the measured sfGFP reporter fluorescence for the input variant. Input: D131S D135P
-- reply 0.547

-- ask Using the record for V16S P61N , report its sfGFP reporter fluorescence.
-- reply 0.612

-- ask Any idea what its sfGFP reporter fluorescence is? The variant is I125L D131C
-- reply 0.0593

-- ask Please give the measured sfGFP reporter fluorescence for this variant: I90L D131C
-- reply 0.122

-- ask What sfGFP reporter fluorescence value was documented for this variant, H142C P143A ?
-- reply 0.384

-- ask Could you share which sfGFP reporter fluorescence value was measured for L126I D135A ?
-- reply 0.152

-- ask Query: sfGFP reporter fluorescence; subject: N83T C134L
-- reply 0.159

-- ask What sfGFP reporter fluorescence value was documented for this variant, N83T D131A P143L ?
-- reply 0.161

-- ask Sample D64T E112I D135A — what was its sfGFP reporter fluorescence?
-- reply 1.56

-- ask Quick one: sfGFP reporter fluorescence of N83I H89C ?
-- reply 0.0687

-- ask Would you mind telling me what sfGFP reporter fluorescence value was observed for N83T D131S P143Y ?
-- reply 0.144

-- ask Can you share its sfGFP reporter fluorescence? I mean this variant: I97S K104V
-- reply 0.825

-- ask Give the measured sfGFP reporter fluorescence of L58F M60L P61N .
-- reply 0.61

-- ask Need sfGFP reporter fluorescence, item D64T R111A
-- reply 2.17

-- ask Suppose we examine the variant P15A P61N ; what sfGFP reporter fluorescence value has been reported?
-- reply 0.573

-- ask // returns reported sfGFP reporter fluorescence for input L58F K104V
-- reply 0.182

-- ask Which value of sfGFP reporter fluorescence has been reported for M60L D64K D135S in the records?
-- reply 1.93

-- ask I'd like to know its sfGFP reporter fluorescence. The variant in question is D64K K104E
-- reply 1.65

-- ask Entry D64T D135A has what sfGFP reporter fluorescence?
-- reply 1.63

-- ask Tell me the measured sfGFP reporter fluorescence of N83T D131S P143A , please.
-- reply 0.156

-- ask Could you share which sfGFP reporter fluorescence value was measured for N83T V108N ?
-- reply 0.132

-- ask Would you kindly share the measured sfGFP reporter fluorescence for N83T G128I ?
-- reply 0.387

-- ask Given the variant R96A K104V G128M , what is its reported sfGFP reporter fluorescence?
-- reply 0.257

-- ask I would be grateful if you could share the reported sfGFP reporter fluorescence for N83T I90S .
-- reply 0.109

-- ask Item under review: P61D D64M R111L . Reported sfGFP reporter fluorescence?
-- reply 1.43

-- ask Sample N83Y R111L — what was its sfGFP reporter fluorescence?
-- reply 0.0698

-- ask Looking for the measured sfGFP reporter fluorescence of N83T D135V , can you help?
-- reply 0.184

-- ask Value lookup for sfGFP reporter fluorescence; key = N83T D135F
-- reply 0.435

-- ask For L110I R111A , what is its reported sfGFP reporter fluorescence?
-- reply 0.415

-- ask Requested field: sfGFP reporter fluorescence. Item: D64K D131L
-- reply 1.89

-- ask Item L107C G128H has what recorded sfGFP reporter fluorescence?
-- reply 1.66

-- ask For the variant D131C P143A , what sfGFP reporter fluorescence is on record?
-- reply 0.141

-- ask For the variant shown here, V108L R111L , give the reported sfGFP reporter fluorescence.
-- reply 0.114

-- ask What value of measured sfGFP reporter fluorescence is listed for R33M Q127T ?
-- reply 0.0645

-- ask So what's the measured sfGFP reporter fluorescence for this one? L129V D135A
-- reply 0.0639

-- ask Name the reported sfGFP reporter fluorescence value associated with the variant P61N D64K K104V L107C G128M
-- reply 2.24

-- ask Consider the variant L107C G128I P143A and give its measured sfGFP reporter fluorescence.
-- reply 2.25

-- ask Which sfGFP reporter fluorescence is reported for this variant? E109L D135R
-- reply 0.406

-- ask Dear colleague, I am looking for the recorded sfGFP reporter fluorescence of the following variant: I97S G128I
-- reply 0.89

-- ask Would you kindly share the measured sfGFP reporter fluorescence for N83T R111L ?
-- reply 0.167

-- ask Fill in: sfGFP reporter fluorescence of D64K R111D is ___
-- reply 0.682

-- ask // sfGFP reporter fluorescence lookup, key: G32S C55M
-- reply 0.101

-- ask Using the record for N83T D135P , report its sfGFP reporter fluorescence.
-- reply 0.106
